System: U2OS
Experiment: Incucyte cell viability with U2OS; also: unitless GR value; below 1 slowed growth and below 0 cell loss
Assay type: toxicity, cell-based
Conditions: human, 24 h, 10 µM, compound concentration 10 uM, replicate number 1
Parameter Growth Rate: see the listing below.
READOUT_TYPE: Growth Rate

INSERT INTO assay_data (compound, tested_target, result) VALUES
  ('CN(C(=O)CCOCCOCCOCCOCCNc1cccc2c1C(=O)N(C1CCC(=O)NC1=O)C2=O)[C@H]1CC[C@@]2(C)[C@@H](CC[C@@H]3[C@@H]2CC[C@]2(C)[C@@H](c4ccc5ccncc5c4)CC[C@@H]32)C1 (stereo not given in full)', 'U2OS', 0.92),
  ('CC/C(=C(\c1ccc(O)cc1)c1ccc(OCCN(C)C)cc1)c1ccccc1 [AFIMOXIFENE]', 'U2OS', 0.9),
  ('O=C1COc2cc(C(=O)N(Cc3ccc(C(=O)Nc4ccncn4)cc3)C3CC3)ccc2N1', 'U2OS', 0.73),
  ('Cc1nc2ccc(Oc3ccc(F)cc3)cc2c(=O)n1C[C@H]1CCCN(C(C)C)C1.Cl', 'U2OS', 0.95),
  ('C=CC(=O)Nc1cc(Nc2nccc(-n3cc(CN(C)C)c(-c4ccccc4)n3)n2)c(OC)cc1N1CCOCC1 [LAZERTINIB]', 'U2OS', 0.78);

###

Test system: U2OS
Test: Incucyte cell viability with U2OS; also: unitless GR value; below 1 slowed growth and below 0 cell loss
Format: toxicity, cell-based
Details: human, 18 h, 10 µM, compound concentration 10 uM, replicate number 2
READOUT_TYPE: Growth Rate

INSERT INTO results (compound, result) VALUES
  ('CC(Sc1nc2c(cnn2-c2cccc(Cl)c2)c(=O)[nH]1)C(N)=O (stereo not drawn)', 0.68),
  ('CC1CCN(C(=O)[C@H](CCn2cccc2C#N)NS(=O)(=O)c2cccc3[nH]ccc23)CC1', 0.91),
  ('COc1cc2ncnc(Nc3cccc(O)c3)c2cc1OC', 0.69);

###

Tested on: HEK-293T
Experiment: Incucyte cell viability with HEK293T; also: unitless GR value; below 1 slowed growth and below 0 cell loss
Assay type: toxicity, cell-based
Details: human, 0 h, 10 µM, compound concentration 10 uM, replicate number 2
Parameter Growth Rate: see the listing below.
READOUT_TYPE: Growth Rate

INSERT INTO assay_data (molecule, tested_target, quantitative_result) VALUES
  ('CC[C@H]1[C@@H](O)[C@@H]2[C@H](CC[C@]3(C)[C@@H]([C@H](C)CCC(=O)O)CC[C@@H]23)[C@@]2(C)CC[C@@H](O)C[C@@H]12 [OBETICHOLIC ACID]', 'HEK-293T', -0.65),
  ('CS(=O)(=O)c1ccc(-c2cnc(N)c(C(=O)Nc3ccccc3)n2)cc1', 'HEK-293T', 0.8),
  ('CCCc1c(OCCCOc2ccc(OCC(=O)O)cc2)ccc(C(C)=O)c1O', 'HEK-293T', -0.76),
  ('Cc1nnc2ccc(-c3cccc(C(F)(F)F)c3)nn12 [CI-218872]', 'HEK-293T', 0.45);

###

Parameter Growth Rate: see the listing below.
Tested on: Fibroblast
Assay: Incucyte cell viability with human fibroblast; also: unitless GR value; below 1 slowed growth and below 0 cell loss
Type: toxicity, cell-based
Conditions: 24 h, 10 µM, compound concentration 10 uM, replicate number 2
READOUT_TYPE: Growth Rate

INSERT INTO results (compound, quantitative_result) VALUES
  ('CC(C)c1ccc(CC(=O)N[C@H](C)c2ccc(OCC(F)(F)F)cn2)cc1 [SUVECALTAMIDE]', 0.74),
  ('CCn1c(-c2nonc2N)nc2c(C#CC(C)(C)O)ncc(OCC3CCCNC3)c21 (stereo not drawn)', 0.58),
  ('COc1cc(CN(CCN)C(=O)N[C@@H](C)c2ccccc2)ccc1OCc1ccccc1.Cl', 0.83),
  ('COc1cc(C(=O)NC2CCN(C)CC2)ccc1Nc1ncc(C(F)(F)F)c(NCc2ccc(C)cc2N(C)S(C)(=O)=O)n1.O=CO.O=CO', -0.54),
  ('CC(C)NC(=O)[C@H]1CCC[C@H]1Nc1nc(Nc2ccc(CN(C)C)cc2)ncc1Br.Cl', -0.46),
  ('Cc1c(N2CCNCC2)nc2ccc(Br)cc2c1C(=O)NC[C@H](CCC(=O)O)c1ccccc1Cl', 0.7),
  ('Cc1cc(C)nc(Nc2ncc(C(=O)NCCc3c(C)[nH]c4ccccc34)cn2)c1.Cl', 0.93),
  ('CCOC(=O)c1cnn(-c2ccc(NC(=O)C(Cl)=C(Cl)Cl)cc2)c1C(F)(F)F', -0.57);
